Origin of values: patent US5352591A

# target.under.test: α-Glucosidase (brewer yeast) (Saccharomyces cerevisiae, UniProt P53341)
# Construct: purchased Sigma
# Sequence (P53341 whole entry): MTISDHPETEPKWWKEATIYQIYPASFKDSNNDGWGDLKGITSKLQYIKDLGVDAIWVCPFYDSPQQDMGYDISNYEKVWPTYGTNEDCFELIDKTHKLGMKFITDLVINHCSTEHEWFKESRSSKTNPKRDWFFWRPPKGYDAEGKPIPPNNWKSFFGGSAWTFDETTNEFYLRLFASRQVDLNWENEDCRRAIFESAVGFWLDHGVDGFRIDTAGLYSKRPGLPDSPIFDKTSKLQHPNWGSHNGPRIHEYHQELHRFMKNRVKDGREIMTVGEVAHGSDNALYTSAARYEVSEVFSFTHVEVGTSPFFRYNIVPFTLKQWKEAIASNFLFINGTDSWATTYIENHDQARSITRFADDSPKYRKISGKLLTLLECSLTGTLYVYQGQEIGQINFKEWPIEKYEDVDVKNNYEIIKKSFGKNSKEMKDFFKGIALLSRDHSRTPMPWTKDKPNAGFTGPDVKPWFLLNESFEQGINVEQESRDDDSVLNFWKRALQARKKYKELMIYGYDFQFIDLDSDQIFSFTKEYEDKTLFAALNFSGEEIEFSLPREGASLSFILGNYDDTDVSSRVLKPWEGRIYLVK
# experiment: Inhibition of α-glucosidase (Lineweaver-Burk, p-nitrophenol release)
# Type: biochemical
# measurement.parameters: pH 6.5
pKi: −log10 of the molar value.

>  <structure.notation>
OC[C@@H]1N[C@H](CO)[C@@H](O)[C@@H]1O

>  <pKi>
5.55

$$$$

* * *

# target.under.test: α-Mannosidase (jack bean) (Canavalia ensiformis)
# Sequence (C0HJB3 1-562 limits assumed): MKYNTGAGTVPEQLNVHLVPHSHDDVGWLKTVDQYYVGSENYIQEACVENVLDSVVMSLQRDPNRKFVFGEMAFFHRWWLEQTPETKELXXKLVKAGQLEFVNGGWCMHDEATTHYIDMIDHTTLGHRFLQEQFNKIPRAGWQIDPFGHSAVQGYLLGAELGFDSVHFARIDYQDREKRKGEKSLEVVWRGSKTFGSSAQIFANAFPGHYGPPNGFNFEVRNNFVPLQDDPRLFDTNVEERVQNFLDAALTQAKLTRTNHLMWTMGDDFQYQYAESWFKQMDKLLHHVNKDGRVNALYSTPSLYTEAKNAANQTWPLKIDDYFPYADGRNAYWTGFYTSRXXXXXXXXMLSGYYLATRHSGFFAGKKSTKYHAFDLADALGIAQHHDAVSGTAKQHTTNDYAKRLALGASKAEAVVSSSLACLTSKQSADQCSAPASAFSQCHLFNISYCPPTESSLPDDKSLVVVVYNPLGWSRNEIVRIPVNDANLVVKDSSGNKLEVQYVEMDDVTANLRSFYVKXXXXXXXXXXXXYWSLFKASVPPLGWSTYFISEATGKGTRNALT
# Sequence (C0HJB3 563-981 limits assumed): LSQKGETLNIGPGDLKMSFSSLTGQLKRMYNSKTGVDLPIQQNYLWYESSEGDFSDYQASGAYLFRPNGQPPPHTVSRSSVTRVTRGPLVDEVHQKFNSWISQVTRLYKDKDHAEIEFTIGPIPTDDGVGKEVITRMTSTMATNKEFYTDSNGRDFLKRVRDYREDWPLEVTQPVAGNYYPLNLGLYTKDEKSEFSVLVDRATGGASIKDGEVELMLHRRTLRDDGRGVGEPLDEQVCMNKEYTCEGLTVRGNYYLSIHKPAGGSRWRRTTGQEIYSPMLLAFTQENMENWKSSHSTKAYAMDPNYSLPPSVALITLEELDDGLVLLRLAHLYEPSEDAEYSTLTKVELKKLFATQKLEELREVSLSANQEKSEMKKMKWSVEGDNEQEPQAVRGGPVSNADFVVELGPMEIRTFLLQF
pKi: −log10 of the molar value.

>  <molecule>
OC[C@@H]1N[C@H](CO)[C@@H](O)[C@@H]1O [Compound 2]

>  <pKi>
2.51

$$$$

* * *

# target.under.test: UniProt P04066
# experiment: α-L-Fucosidase inhibition (fuc-pNP hydrolysis)
# Format: biochemical
pKi: −log10 of the molar value.

>  <structure.notation>
Oc1ccccc1

>  <pKi>
3.74

$$$$

* * *

# target.under.test: α-L-Fucosidase (Homo sapiens, UniProt P04066)
# Sequence (P04066 32-466): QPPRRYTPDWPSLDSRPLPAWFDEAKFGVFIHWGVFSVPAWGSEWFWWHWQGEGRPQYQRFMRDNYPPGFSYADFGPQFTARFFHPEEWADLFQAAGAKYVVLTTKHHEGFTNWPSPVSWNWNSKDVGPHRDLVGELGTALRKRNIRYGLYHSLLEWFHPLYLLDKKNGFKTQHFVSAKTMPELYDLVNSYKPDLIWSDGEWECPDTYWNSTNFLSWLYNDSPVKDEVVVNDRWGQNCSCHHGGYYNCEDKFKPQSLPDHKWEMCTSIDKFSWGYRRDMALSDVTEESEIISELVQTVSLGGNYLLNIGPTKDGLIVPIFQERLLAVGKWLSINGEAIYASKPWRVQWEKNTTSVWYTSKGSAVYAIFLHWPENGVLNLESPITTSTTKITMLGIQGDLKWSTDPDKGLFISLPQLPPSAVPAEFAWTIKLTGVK
# experiment: α-L-Fucosidase inhibition (fuc-pNP hydrolysis)
# Type: biochemical
# measurement.parameters: versus fuc-pNP, 50 mM acetate buffer pH 5.5, 25° C.; read-out: Ki, α-L-Fucosidase inhibition
pKi: −log10 of the molar value.
endpoint: pKi

>  <molecule>
C[C@@H]1OC(O)[C@@H](O)[C@H](O)[C@@H]1O (stereo partly shown)

>  <quantitative.result>
3.52

$$$$
